Assignment: determine reported EC50 (nM), bispecific killing (FIG. 13E) for the given binders.
# ASSAY_SYSTEM: T1, canine CD20 on cells (HEK293, MDCK II, CLBL-1 or native B cells) (canine, UniProt Q3C2E2 1-297)
# T1 chain: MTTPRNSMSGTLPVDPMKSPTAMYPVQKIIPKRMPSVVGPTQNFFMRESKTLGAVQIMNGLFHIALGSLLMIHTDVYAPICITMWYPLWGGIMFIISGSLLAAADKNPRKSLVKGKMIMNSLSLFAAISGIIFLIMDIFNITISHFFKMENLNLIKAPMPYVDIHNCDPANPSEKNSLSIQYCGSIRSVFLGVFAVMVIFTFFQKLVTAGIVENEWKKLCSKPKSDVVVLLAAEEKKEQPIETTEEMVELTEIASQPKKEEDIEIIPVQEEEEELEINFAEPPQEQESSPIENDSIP
# METHOD_SUMMARY: cell-based or functional assay
Numbers only, in nM.

The cases that follow already have their EC50 (nM), bispecific killing (FIG. 13E) on record.
PMX172VH/PMX263VH/PMX172VL (bispecific antibody, V domains shown) VH 1: EVQLVESGGDLVKPGGSLRLSCVASGFTFSSYHMSWVRQAPGKGLQWVAYSNSGGSRTSYADAVKGRFTISRDNAKNTLYLQMNSLRAEDTAVYYCASEGGGGRYGYKDYGMDYWGHGTSLFVSS VH 2: EVQLVESGGDLVKPGGSLRLSCVASGFTFSRYYMNWVRQAPGKGLQWVAYINSGGSSTSYADAVKGRFTISRDNAKNTLYLQMNSLRADDTAVYYCTSFDYWGQGTLVTVSS VL: SYVLTQLPSKNVTLKQPAHITCGGDNIGSKSVHWYQQKLGQAPVLIIYYDSSRPTGIPERFSGANSGNTATLTISGALAEDEADYYCQVWDSSAKAWVFGEGTQLTVL :: 15.7
PMX172VH/PMX264VH/PMX172VL (bispecific antibody, V domains shown) VH 1: EVQLVESGGDLVKPGGSLRLSCVASGFTFSSYHMSWVRQAPGKGLQWVAYSNSGGSRTSYADAVKGRFTISRDNAKNTLYLQMNSLRAEDTAVYYCASEGGGGRYGYKDYGMDYWGHGTSLFVSS VH 2: EVQLVESGGDLVKPGGSLRLSCVASGFTFSRYHMSWVRQAPGKGLQWVAFINTGRMSTNYADAVKGRFTISRDNAKNTLYLQMNSLRAEDTAVYYCTSLDYWGQGTLVTVSS VL: SYVLTQLPSKNVTLKQPAHITCGGDNIGSKSVHWYQQKLGQAPVLIIYYDSSRPTGIPERFSGANSGNTATLTISGALAEDEADYYCQVWDSSAKAWVFGEGTQLTVL :: 2.88

Now for a further binder.
Fill in the blank: the reported EC50 (nM), bispecific killing (FIG. 13E) of PMX172VH/PMX273VH/PMX172VL (bispecific antibody, V domains shown) VH 1: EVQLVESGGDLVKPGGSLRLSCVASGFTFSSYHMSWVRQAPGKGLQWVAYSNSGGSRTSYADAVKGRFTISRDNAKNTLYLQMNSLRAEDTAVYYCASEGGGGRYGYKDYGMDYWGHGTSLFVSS VH 2: EMQLVESGGDLVKPGGSLRLSCVASGFTFSRYHMSWVRQAPGKGLQWVAYIDSDGSPTNYADAVKGRFTISRDNAKNTLYLQMNSLRAEDTAVYYCTTYDQWGQGTLVTVSS VL: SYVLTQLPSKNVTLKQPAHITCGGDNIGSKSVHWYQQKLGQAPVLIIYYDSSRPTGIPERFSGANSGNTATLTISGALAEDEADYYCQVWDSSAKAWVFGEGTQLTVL is ____.
9.63

Reference source for all entries: patent US20240209086A1
